procedure-details: Increase in neuronal survival in embryonic chick dorsal root ganglion sensory neurons at 10 uM to 10 nM after 48 hrs relative to BDNF
Assay type: functional, Gallus gallus, DRG neuron
Here, each record is paired with measured Activity data.
Write the number in % without appending the unit.

Use these answered entries as a reference point.
## Task Can you share its Activity? I mean this compound: CCCC[C@@H]1NC(=O)[C@H]2CCCN2C(=O)[C@H](CCCNC(=N)N)NC(=O)[C@H](CCCCN)NC(=O)[C@H](CCCCN)NC1=O
## Result 36.2

## Task Can you share its Activity? I mean this compound: CCCCCCCC(=O)NCCCC[C@@H]1NC(=O)[C@H]2CCCN2C(=O)[C@H](CCCNC(=N)N)NC(=O)[C@H](CCCCN)NC(=O)[C@H](CCCCN)NC1=O
## Result 38.7

New cases:
## Task Can you share its Activity? I mean this compound: CCCCCCCCCCCCCCCC(=O)NCCCC[C@@H]1NC(=O)[C@H]2CCCN2C(=O)[C@H](CCCNC(=N)N)NC(=O)[C@H](CCCCN)NC(=O)[C@H](CCCCN)NC1=O
## Result 49.4

====

procedure-details: Stability in mouse plasma assessed as degradation
Type: ADME, cell-free
condition: read-out: Activity
measure-name: metabolised (%)
Write the number in % without appending the unit.

## Task Can you share its metabolised? I mean this compound: CCCCCCCC(=O)NCCCC[C@@H]1NC(=O)[C@H]2CCCN2C(=O)[C@H](CCCNC(=N)N)NC(=O)[C@H](CCCCN)NC(=O)[C@H](CCCCN)NC1=O
## Result 20

====

Here, each record is paired with measured Activity data.
procedure-details: Increase in neuronal survival in embryonic chick dorsal root ganglion sensory neurons at 10 uM to 10 nM after 48 hrs relative to BDNF
Type: functional, Gallus gallus, DRG neuron
Write the number in % without appending the unit.

Use these answered entries as a reference point.
## Task Can you share its Activity? I mean this compound: N=C(N)NCCC[C@@H]1NC(=O)[C@H](CCCCN)NC(=O)[C@H](CCCCN)NC(=O)[C@H](CCCCN)NC(=O)[C@H]2CCCN2C1=O
## Result 60.9

## Task Can you share its Activity? I mean this compound: N=C(N)NCCC[C@@H]1NC(=O)[C@H](CCCCN)NC(=O)[C@H](CCCCN)NC(=O)[C@H](Cc2ccccc2)NC(=O)[C@H]2CCCN2C1=O
## Result 21.8

New cases:
## Task Can you share its Activity? I mean this compound: CCCCC(=O)NCCCC[C@@H]1NC(=O)[C@H]2CCCN2C(=O)[C@H](CCCNC(=N)N)NC(=O)[C@H](CCCCN)NC(=O)[C@H](CCCCN)NC1=O
## Result 39.4

====

procedure-details: Apparent permeability across apical to basolateral side in human Caco-2 cells at 200 uM after 150 mins
Assay type: ADME, cell-based
Here, each record is paired with measured Papp A→B at 2.5 h, 200 µM data.
Write the number in ×10⁻⁶ cm/s without appending the unit.

Use these answered entries as a reference point.
## Task Can you share its Papp A→B at 2.5 h, 200 µM? I mean this molecule: CCCCC(=O)NCCCC[C@@H]1NC(=O)[C@H]2CCCN2C(=O)[C@H](CCCNC(=N)N)NC(=O)[C@H](CCCCN)NC(=O)[C@H](CCCCN)NC1=O
## Result 0.929

## Task Can you share its Papp A→B at 2.5 h, 200 µM? I mean this molecule: CCCC[C@@H]1NC(=O)[C@H]2CCCN2C(=O)[C@H](CCCNC(=N)N)NC(=O)[C@H](CCCCN)NC(=O)[C@H](CCCCN)NC1=O
## Result 0.288

## Task Can you share its Papp A→B at 2.5 h, 200 µM? I mean this molecule: CCCCCCCC(=O)NCCCC[C@@H]1NC(=O)[C@H]2CCCN2C(=O)[C@H](CCCNC(=N)N)NC(=O)[C@H](CCCCN)NC(=O)[C@H](CCCCN)NC1=O
## Result 0.922

New cases:
## Task Can you share its Papp A→B at 2.5 h, 200 µM? I mean this molecule: C[C@@H]1NC(=O)[C@H]2CCCN2C(=O)[C@H](CCCNC(=N)N)NC(=O)[C@H](CCCCN)NC(=O)[C@H](CCCCN)NC1=O
## Result 0.642
